B1: Osa-1-4 twister ribozyme (parent)
chain: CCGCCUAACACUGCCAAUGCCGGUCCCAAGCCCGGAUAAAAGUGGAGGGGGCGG

Variants of: B1
Assay: self-cleavage, relative activity (ratio to wild type); higher = more cleavage; co-transcriptional
MEASUREMENT TYPE: self-cleavage
Response field accepts a number only; no unit should be typed.

Example results:
C26U G54C    0.3
G42C G51U    0.06
C11A C21A    0.14

Could you now consider this next variant?
Challenge: Consider the variant G23A G35U and give its measured self-cleavage.
Response given: 0.13
